Data provenance is ChEMBL document CHEMBL1961873.

Tested on: Epidermal growth factor receptor (Homo sapiens), P00533 [L858R]
Sequence (P00533 whole entry L858R): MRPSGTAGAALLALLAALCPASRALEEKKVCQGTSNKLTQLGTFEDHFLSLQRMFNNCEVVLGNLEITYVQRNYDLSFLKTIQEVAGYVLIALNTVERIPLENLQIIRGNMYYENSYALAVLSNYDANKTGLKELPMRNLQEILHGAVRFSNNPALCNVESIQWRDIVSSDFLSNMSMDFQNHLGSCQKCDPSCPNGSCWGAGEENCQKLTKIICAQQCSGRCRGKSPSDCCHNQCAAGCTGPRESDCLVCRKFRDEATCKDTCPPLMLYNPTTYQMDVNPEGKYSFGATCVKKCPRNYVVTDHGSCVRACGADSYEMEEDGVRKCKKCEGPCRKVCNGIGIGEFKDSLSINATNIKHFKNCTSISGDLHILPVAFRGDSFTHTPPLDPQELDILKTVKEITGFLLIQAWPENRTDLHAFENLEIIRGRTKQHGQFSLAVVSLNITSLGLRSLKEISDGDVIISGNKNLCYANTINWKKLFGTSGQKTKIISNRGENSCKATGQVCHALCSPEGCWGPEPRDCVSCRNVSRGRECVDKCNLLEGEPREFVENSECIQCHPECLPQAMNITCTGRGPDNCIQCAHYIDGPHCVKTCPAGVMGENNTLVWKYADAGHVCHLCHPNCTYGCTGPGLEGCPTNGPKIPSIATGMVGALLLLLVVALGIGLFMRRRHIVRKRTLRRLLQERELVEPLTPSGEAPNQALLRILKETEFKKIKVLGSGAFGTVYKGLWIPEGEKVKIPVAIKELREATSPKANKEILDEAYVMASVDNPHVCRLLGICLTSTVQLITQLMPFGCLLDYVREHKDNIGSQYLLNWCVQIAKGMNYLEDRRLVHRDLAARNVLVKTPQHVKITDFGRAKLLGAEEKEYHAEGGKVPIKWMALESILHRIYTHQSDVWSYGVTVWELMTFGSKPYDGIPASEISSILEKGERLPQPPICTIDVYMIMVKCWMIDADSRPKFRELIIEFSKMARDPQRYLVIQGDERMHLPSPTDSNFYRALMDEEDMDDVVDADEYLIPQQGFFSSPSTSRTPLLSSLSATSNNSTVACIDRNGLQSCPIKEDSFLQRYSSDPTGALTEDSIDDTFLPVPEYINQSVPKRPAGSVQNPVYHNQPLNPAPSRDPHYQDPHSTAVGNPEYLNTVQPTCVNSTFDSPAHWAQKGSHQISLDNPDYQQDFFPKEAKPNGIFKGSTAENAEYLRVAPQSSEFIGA
Details: at 0.1 µM
Property Name: inhibition (%)

- Line Notation: "C[C@@H](Oc1cc(-n2cnc3ccc(OCC4CCN(C)CC4)cc32)sc1C(N)=O)c1ccccc1Cl"
  Property Name: "inhibition"
  Reported Measurement: 4.5
- Line Notation: "COc1cc(Nc2ncc3c(C)nc(-c4cccc(Oc5ccccc5)c4)n3n2)cc(OC)c1OC"
  Property Name: "inhibition"
  Reported Measurement: 2.38
- Line Notation: "Cc1ccc(NC(=O)c2ccoc2)cc1-c1ccc(C(=O)NCC2CC2)cc1"
  Property Name: "inhibition"
  Reported Measurement: 3.23
- Line Notation: "CCS(=O)(=O)c1ccc(OC)c(Nc2ncc(-c3cccc(-c4ccccc4F)c3)o2)c1"
  Property Name: "inhibition"
  Reported Measurement: 14.1
- Line Notation: "Fc1ccc(-c2ncn(C3CCNCC3)c2-c2ccnc(Oc3ccc(Oc4ccccc4)cc3)n2)cc1"
  Property Name: "inhibition"
  Reported Measurement: -0.18

###

Biological target: Vascular endothelial growth factor receptor 3 (Homo sapiens)
Settings: at 0.1 µM
Description: GSK_PKIS: FLT4 mean inhibition at 0.1 uM [Nanosyn]
Property Name: inhibition (%)

- Line Notation: "COc1ccc(-c2ccc3c(NC(=O)C4CC4)n[nH]c3n2)cc1"
  Property Name: "inhibition"
  Unit: "%"
  Reported Measurement: 1.77
- Line Notation: "Cc1nnc(-c2ccc(C)c(-c3ccc(C(=O)NCc4ccc(Cl)cc4)cc3)c2)o1"
  Property Name: "inhibition"
  Unit: "%"
  Reported Measurement: -5.22
- Line Notation: "CCc1ccc(Oc2nccc(-c3c(-c4ccc(F)cc4)ncn3C3CCNCC3)n2)cc1"
  Property Name: "inhibition"
  Unit: "%"
  Reported Measurement: 6.35
- Line Notation: "Cc1ccc(C(=O)NC(C)C)cc1-c1ccc(C(=O)NCC2CC2)cc1"
  Property Name: "inhibition"
  Unit: "%"
  Reported Measurement: 1.2
- Line Notation: "C/C(Nc1ccc(S(N)(=O)=O)cc1)=C1/C(=O)Nc2ccccc21"
  Property Name: "inhibition"
  Unit: "%"
  Reported Measurement: 7.83

###

List of inhibition values.
Target: Dual specificity protein kinase CLK2 (Homo sapiens) (UniProt P49760)
Sequence (P49760 whole entry, looked up): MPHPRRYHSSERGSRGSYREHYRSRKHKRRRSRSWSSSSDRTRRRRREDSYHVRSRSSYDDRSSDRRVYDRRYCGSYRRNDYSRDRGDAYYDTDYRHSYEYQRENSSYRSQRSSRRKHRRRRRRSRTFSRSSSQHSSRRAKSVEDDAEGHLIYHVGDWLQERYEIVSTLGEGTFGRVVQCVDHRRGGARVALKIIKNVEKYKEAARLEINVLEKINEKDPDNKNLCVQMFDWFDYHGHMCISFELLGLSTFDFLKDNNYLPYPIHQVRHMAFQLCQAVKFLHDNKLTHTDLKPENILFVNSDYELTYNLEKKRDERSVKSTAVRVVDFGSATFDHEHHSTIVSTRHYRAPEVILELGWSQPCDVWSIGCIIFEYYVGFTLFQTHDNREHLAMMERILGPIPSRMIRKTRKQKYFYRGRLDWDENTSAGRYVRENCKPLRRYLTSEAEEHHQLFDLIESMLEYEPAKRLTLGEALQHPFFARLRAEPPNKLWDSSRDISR
Details: at 0.1 µM
Description: GSK_PKIS: CLK2 mean inhibition at 0.1 uM [Nanosyn]
Property Name: inhibition (%)

- Molecule: "CCS(=O)(=O)c1ccc(OC)c(Nc2ncc(-c3ccccc3Cl)o2)c1"
  Property Name: "inhibition"
  Unit: "%"
  Reported Measurement: 4.19
- Molecule: "NS(=O)(=O)c1ccc(N/N=C2\\C(=O)Nc3ccc(C(=O)NCCCn4ccnc4)cc32)cc1"
  Property Name: "inhibition"
  Unit: "%"
  Reported Measurement: 15.6
- Molecule: "NCc1ccc(-n2c(-c3nonc3N)nc3cnccc32)cc1"
  Property Name: "inhibition"
  Unit: "%"
  Reported Measurement: 6.2
- Molecule: "COc1ccc2cc(-c3c(-c4ccncc4)nc(-c4ccc([S+](C)[O-])cc4C)n3C)ccc2c1 (centres undefined)"
  Property Name: "inhibition"
  Unit: "%"
  Reported Measurement: 1.09
- Molecule: "Fc1ccc(-c2ncn(C3CCNCC3)c2-c2ccnc(Oc3ccc(F)c(F)c3)n2)cc1"
  Property Name: "inhibition"
  Unit: "%"
  Reported Measurement: 0.86
- Molecule: "CN(C)CCCNc1nccc(-c2c(-c3ccc(F)cc3)nn3cc(C(F)(F)F)ccc23)n1"
  Property Name: "inhibition"
  Unit: "%"
  Reported Measurement: 1.26
- Molecule: "COc1cc(N2CCN(C(C)C)CC2)ccc1Nc1nc(Nc2ccc(F)cc2C(=O)NC[C@@H](O)CO)c2cc[nH]c2n1"
  Property Name: "inhibition"
  Unit: "%"
  Reported Measurement: 29.4
- Molecule: "c1ccc(-c2n[nH]cc2-c2ccnc(-c3ccc(OCCN4CCOCC4)cc3)c2)nc1"
  Property Name: "inhibition"
  Unit: "%"
  Reported Measurement: 2.87
- Molecule: "O=C1Nc2ccccc2/C1=C/Nc1ccc(-n2cncn2)cc1"
  Property Name: "inhibition"
  Unit: "%"
  Reported Measurement: 4.14
